Biological target: NADPH oxidase 5 (Homo sapiens) (UniProt Q96PH1)
Sequence (Q96PH1 whole entry, looked up): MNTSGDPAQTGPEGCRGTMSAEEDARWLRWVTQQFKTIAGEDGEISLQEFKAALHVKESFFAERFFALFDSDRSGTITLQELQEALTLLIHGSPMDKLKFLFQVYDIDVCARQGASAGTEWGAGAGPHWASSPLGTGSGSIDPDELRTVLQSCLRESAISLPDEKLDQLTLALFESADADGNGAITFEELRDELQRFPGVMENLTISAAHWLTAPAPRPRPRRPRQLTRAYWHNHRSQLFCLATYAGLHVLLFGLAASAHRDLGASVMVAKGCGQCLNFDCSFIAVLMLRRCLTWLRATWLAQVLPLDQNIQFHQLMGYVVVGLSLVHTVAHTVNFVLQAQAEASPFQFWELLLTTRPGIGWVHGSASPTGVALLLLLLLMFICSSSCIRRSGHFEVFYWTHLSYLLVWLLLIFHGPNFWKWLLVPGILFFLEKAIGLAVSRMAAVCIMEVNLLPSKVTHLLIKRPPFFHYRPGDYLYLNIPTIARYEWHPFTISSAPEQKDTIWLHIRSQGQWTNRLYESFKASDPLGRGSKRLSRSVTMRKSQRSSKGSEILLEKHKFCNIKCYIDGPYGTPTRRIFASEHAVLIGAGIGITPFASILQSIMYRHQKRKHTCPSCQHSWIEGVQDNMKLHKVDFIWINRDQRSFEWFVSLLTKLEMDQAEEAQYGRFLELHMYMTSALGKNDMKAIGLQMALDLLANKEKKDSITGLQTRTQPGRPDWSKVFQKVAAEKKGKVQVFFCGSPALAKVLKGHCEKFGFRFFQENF
Assay: compounds shifting NOX5 Amplex Red fluorescence – cell-based, HEK293-NOX5, NOX inhibitor project, primary screen (AID 1161)
Details: HEK293-NOX5, ionomycin, 45 min, higher = more signal
measured_attribute: z-score
Reply with just the number.

So for O=C1OCCC=C[C@H]2OC34C=CCN(c5ccc6ccccc6c5)C(=O)[C@H]3N(CCCCCCO)C(=O)[C@@H]4C12 (stereo partly specified) , the logged z-score turned out to be 2.68

z-score measured on `COCCn1c(C(=O)N2CCCC2)cc2c1C[C@H]1CN(C(=O)c3ccccc3)[C@@](Cc3ccc(OC)cc3)(C(=O)OC)[C@@H]21` = -4.54

Record summary for `O=C(NCC(F)(F)F)[C@@H]1c2ccccc2C(=O)N(Cc2ccccc2)[C@H]1c1ccc(CO)cc1` : reported z-score = -0.601

CCN(CC)c1ccc(N2CC=CC34O[C@@H]5/C=C\CCCOC(=O)C5[C@H]3C(=O)N(CCCO)[C@@H]4C2=O)cc1 (stereo partly specified) yielded z-score of 0.931

Looking up `C=CC[C@@]1(C(=O)NCc2ccccc2)N=C(c2ccc(OCCCO)cc2)O[C@@H]1c1ccccc1CN=[N+]=[N-]` , I see its z-score listed as 0.694

For record `C=C(CCCC)C(=O)CC[C@H](OC(=O)c1ccccc1-c1ccccc1C(=O)O)c1ccc(CO)o1` the listed z-score is -1.15

Consider `O=c1cccc(-c2ccc3ccccc3c2)o1` . Its measured z-score is -1.19

GET /value?item= `COC(=O)[C@@]1(Cc2ccc(F)cc2)[C@H]2c3cc(C(=O)N4CCCC4)n(Cc4ccc(Cl)c(C(F)(F)F)c4)c3C[C@H]2CN1C(=O)c1ccccc1` &field=z-score returns 1.31
